Hey, just so you know, these numbers are from the domain aggregation screens of Martell et al. (2025).

# assay remarks: soluble fraction after stress (log2 fold change); higher = more stays soluble; pooled small domains, quantitative proteomics
# particulars: stress: 50 degC
endpoint: soluble fraction (log2)
Form rule: numeric answer, no unit written next to it.

Consider the following illustrative entries.
residue sequence	observed measurement
HMKKYIEIYNYYKQLIESEQLKSGDKMPSVRKATKIFNVSKTTVQNAYFDLQADGYIIAAPKSGYYVTEM	-0.295
HMDLSLQTFNELKTELTNNKITIDQFSEKINEFDITSDIFEISRELFLDDTLSLEDYLVVIENVLIN	-0.45

Query: For the sequence HMHPRDREENKYLLLRGERIYEESIGEKRLYVEAALHKYEKALSSYDTGLIDEAKEEFKKFLEEIEEA , give its measured soluble fraction (log2) value.
Result: -0.0765

Query: For the sequence HMEPREEFTFADLRANGLNGTAAAAGRRAALGAALGIGYGNAKQFLRRLNHYGVTRSEWEAALADLDE , give its measured soluble fraction (log2) value.
Result: -0.419

Query: For the sequence HMVVMEIGANGSEVVKLQKRLNQLGYYTEHASGVYDVKTASAVNEFQRQNELNATGKADYTTLDMIYNQ , give its measured soluble fraction (log2) value.
Result: 0.02

Query: For the sequence HMNVSDIENKLNEMLSPLEKKVMVLYLEGKSYVEIGELLGRHTKSVDNALQRVKRKLEIYLKNRK , give its measured soluble fraction (log2) value.
Result: -1.22

Query: For the sequence HMNMSVVEKVIQQISNPGRDSLIPILQAVQEEEGFISRESVIEIGKALDLPASKIYGVATFYNQFR , give its measured soluble fraction (log2) value.
Result: -0.338

Query: For the sequence HMTDTSFPRLGAPEEELLSFLAKWEIDAEDAHYTKFSLYYQSTGKMMRDWKATWRAWKERQSELNAQR , give its measured soluble fraction (log2) value.
Result: -1.68

* * *

soluble fraction (log2) values by entry
# assay remarks: soluble fraction after stress (log2 fold change); higher = more stays soluble; pooled small domains, quantitative proteomics
# particulars: stress: 50 degC
Form rule: numeric answer, no unit written next to it.

Consider the following illustrative entries.
residue sequence	endpoint	observed measurement
HMDKSRPVLRVGDSGDWVSKLQTALLEFGYRVAVDGVFGEHTKSAVVHFQNGRRLIADGVVGNLTWDALL	soluble fraction (log2)	-2.31
HMQRDTIAISAIPTAIKTYLSSTYPTDTLVHAFVNKDQSIVVISKNIDFYATSFSTANAFIKRIQLPA	soluble fraction (log2)	-1.03
HMYMKTITEQFGERLKKIRTQKSLSQEQLSYLADIDRSYISDVERGARNISLENIYKLASALNIPPYLVLL	soluble fraction (log2)	-0.273

Query: For the sequence HMGPVRDLGLLESAAHRPTTALWGRDVYATIEKKAAALLDSLVRDRPLADGNKRLGWLAALV , give its measured soluble fraction (log2) value.
Result: 0.0437

* * *

# assay remarks: soluble fraction after stress (log2 fold change); higher = more stays soluble; pooled small domains, quantitative proteomics
# particulars: stress: 50 degC
Kind request: treat -0.3 as inclusive, so soluble fraction (log2) at -0.3 or higher is class 1, anything lower is class 0.

Reference set, count: 3
residue sequence	category label
HMNESEALIARIENLPPIEDLTEKHAEEVKALMTVYSKLKMSDRILVTNYGVLKKDFDALVKKGFLTNED	class 1
HMIEDMQQYIKEIRQMVSGRLDMTRNLEDEEIRDTIAELVAEESRKQYMTLTEKREVIEGVFNSMR	class 1
HMKKTDFNVENYDIEELAAILNFKYVPLNQGLIRDRIKDMKQRFKNKPEYIKFFTDVEIKLVNNLNLFN	class 0

Note: attention shifts to another entry.
Query: Could you please find out whether HMQQNYREMHKVKKGETLFGIARRYEITVDQLIKANPDMNAVGYELKKGDYIFIPYPDGQKP has soluble fraction (log2) that meets -0.3 or exceeds it?
Result: class 1
